All figures here come from patent EP4778922A1.

- protocol-details: Mouse pharmacokinetic test
- Format: in vivo, ICR mice
- details: plasma, 0.5 mg/kg, IV-0.5mpk
Property: clearance; scope: individual molecules
Only the number, expressed in mL/min/kg, is required.

molecule="CC(C)(c1ccc(-c2ccc(C#Cc3cnc(P(C)(C)=O)nc3)cc2)cc1)c1cc(Cl)c(OCCCl)c(C#N)c1 [Compound 109]" readout_label=clearance endpoint_value=0.56

Prompt: Entry CC(C)(c1ccc(-c2cnc(OCc3ccnc(N4CC(S(C)(=O)=O)C4)n3)cn2)cc1)c1cc(Cl)c(OCCCl)c(C#N)c1 [Compound 262] has what clearance?
Completion: 0.55

Prompt: Entry CC(C)(c1ccc(-c2ccc(OCc3ccnc(P(C)(C)=O)n3)nc2)cc1)c1cc(Cl)c(OCCCl)c(C#N)c1 [Compound 17] has what clearance?
Completion: 1.1

====

- protocol-details: Mouse pharmacokinetic test
- Assay type: in vivo, ICR mice
- details: plasma, po, 30 mg/kg, PO-30mpk
Property: Cmax; scope: individual molecules
Only the number, expressed in ng/mL, is required.

Some molecules with known Cmax results, for comparison:
molecule="CC(C)(c1ccc(-c2ccc(OCc3ccnc(N4CC[C@H](S(C)(=O)=O)C4)n3)cc2)cc1)c1cc(Cl)c(OCCCl)c(C#N)c1 [Compound 202]" readout_label=Cmax units=ng/mL endpoint_value=8880
molecule="CC(C)(c1ccc(-c2ccc(COc3ccnc(P(C)(C)=O)n3)cc2)cc1)c1cc(Cl)c(OCCCl)c(C#N)c1 [Compound 253]" readout_label=Cmax units=ng/mL endpoint_value=20800
molecule="CNS(=O)(=O)C1CN(c2nccc(COc3ccc(-c4ccc(C(C)(C)c5cc(Cl)c(OCCCl)c(C#N)c5)cc4)nc3)n2)C1 [Compound 258]" readout_label=Cmax units=ng/mL endpoint_value=39200
molecule="CC(C)(c1ccc(-c2ccc(OCc3ccnc(N4CC(S(C)(=O)=O)C4)n3)cn2)cc1)c1cc(Cl)c(OCCCl)c(C#N)c1 [Compound 85]" readout_label=Cmax units=ng/mL endpoint_value=43000
molecule="CC(C)(c1ccc(-c2ccc(OCc3ccnc(N=S(C)(C)=O)n3)cc2)cc1)c1cc(Cl)c(OCCCl)c(C#N)c1 [Compound 44]" readout_label=Cmax units=ng/mL endpoint_value=11700

Prompt: Entry Cc1cc(OCc2ccnc(P(C)(C)=O)n2)ccc1-c1ccc(C(C)(C)c2cc(Cl)c(OCCCl)c(C#N)c2)cc1 [Compound 119] has what Cmax?
Completion: 17400

Prompt: Entry CC(C)(c1ccc(-c2ccc(OCc3ccnc(N=S4(=O)CCCC4)n3)cc2)cc1)c1cnc2c(cnn2CCCl)c1 [Compound 46] has what Cmax?
Completion: 20700

Prompt: Entry CC(C)(c1ccc(-c2ccc(C#Cc3cnc(P(C)(C)=O)nc3)cc2)cc1)c1cc(Cl)c(OCCCl)c(C#N)c1 [Compound 109] has what Cmax?
Completion: 29200

Prompt: Entry CC(C)(c1ccc(-c2cnc(OCc3ccnc(N=S4(=O)CCOCC4)n3)cn2)cc1)c1cc(Cl)c(OCCCl)c(C#N)c1 [Compound 206] has what Cmax?
Completion: 32100

Prompt: Entry CC(C)(c1ccc(-c2ccc(OCc3ccc(-c4cnc(P(C)(C)=O)nc4)cc3)cc2)cc1)c1cc(Cl)c(OCCCl)c(C#N)c1 [Compound 136] has what Cmax?
Completion: 10100

Prompt: Entry CC(C)(c1ccc(-c2ccc(OCc3ccnc(N4CC5(CC(P(C)(C)=O)C5)C4)n3)cc2)cc1)c1cc(Cl)c(OCCCl)c(C#N)c1 [Compound 61] has what Cmax?
Completion: 15600

Prompt: Entry CC(C)(c1ccc(-c2ccc(OCc3ccnc(N4CC(S(C)(=O)=O)C4)n3)cc2)cc1)c1cc(Cl)c(OCCCl)c(C#N)c1 [Compound 53] has what Cmax?
Completion: 13200

Prompt: Entry CC(C)(c1ccc(-c2ccc(/C=C/c3cnc(P(C)(C)=O)nc3)cc2)cc1)c1cc(Cl)c(OCCCl)c(C#N)c1 [Compound 234] has what Cmax?
Completion: 13400

====

- target-of-assay: CYP3A4 (testosterone/midazolam) (Homo sapiens, UniProt P08684)
- Construct: co-incubated with human liver microsomes; from tissue; host or cells: human liver microsomes
- Sequence (P08684 whole entry): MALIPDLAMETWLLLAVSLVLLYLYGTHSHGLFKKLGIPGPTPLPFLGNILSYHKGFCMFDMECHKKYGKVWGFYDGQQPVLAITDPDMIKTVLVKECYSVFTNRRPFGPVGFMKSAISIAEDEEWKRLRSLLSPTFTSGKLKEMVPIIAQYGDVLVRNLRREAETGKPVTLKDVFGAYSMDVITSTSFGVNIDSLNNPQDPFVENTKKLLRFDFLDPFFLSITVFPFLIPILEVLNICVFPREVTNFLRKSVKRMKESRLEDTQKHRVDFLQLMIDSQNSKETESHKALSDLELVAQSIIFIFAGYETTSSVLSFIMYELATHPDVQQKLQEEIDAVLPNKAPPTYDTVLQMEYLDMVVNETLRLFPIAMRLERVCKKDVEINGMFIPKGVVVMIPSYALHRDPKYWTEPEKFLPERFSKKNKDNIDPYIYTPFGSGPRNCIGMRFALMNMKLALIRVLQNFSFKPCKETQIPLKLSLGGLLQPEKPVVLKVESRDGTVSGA
- protocol-details: CYP inhibition assay in human liver microsomes
- Assay type: in vitro ADME
- details: CYPs 3A4 (Midazolam) (IC50), probe substrate midazolam
- Source text: Test Example 3: CYP Inhibition Assay An in vitro assay system was used to evaluate the effects of the compounds on the activities of several human liver microsomal cytochrome P450 (CYP) isozymes (CYP1A2, CYP2C9, CYP2D6, CYP3A4 (testosterone/midazolam), CYP2C19, and CYP2C8). […] After the reaction was completed, the samples were processed, and the metabolites generated from the probe substrates were detected by liquid chromatography-tandem mass spectrometry (LC-MS/MS). […]
pIC50: −log10 of the molar value.
readout-label: pIC50

Prompt: What measured pIC50 is associated with CC(C)(c1ccc(-c2ccc3oc(-c4ccnc(P(C)(C)=O)n4)c(N)c3c2)cc1)c1cc(Cl)c(OCCCl)c(C#N)c1 [Compound 56] on CYP3A4 (testosterone/midazolam) (Homo sapiens, UniProt P08684)?
Completion: < 5.00

====

- protocol-details: Mouse pharmacokinetic test
- Type: in vivo, ICR mice
- details: plasma, po, 30 mg/kg, PO-30mpk
readout-label: half-life (h)
Only the number, expressed in h, is required.

compound="CC(C)(c1ccc(-c2ccc(OCc3ccnc(N4CC5(COC5)C4)n3)cn2)cc1)c1cc(Cl)c(OCCCl)c(C#N)c1 [Compound 82]" readout_label=half-life endpoint_value=8.3
compound="CC(C)(c1ccc(-c2ccc(OCc3ccnc(N4CC[C@H](S(C)(=O)=O)C4)n3)cc2)cc1)c1cc(Cl)c(OCCCl)c(C#N)c1 [Compound 202]" readout_label=half-life endpoint_value=18.5
compound="CC(C)(c1ccc(-c2ccc(OCc3ccnc(N4CC5(CC(P(C)(C)=O)C5)C4)n3)cc2)cc1)c1cc(Cl)c(OCCCl)c(C#N)c1 [Compound 61]" readout_label=half-life endpoint_value=7.6
compound="CC(C)(c1ccc(-c2ccc(OCc3ccnc(N=S4(=O)CCCC4)n3)cn2)cc1)c1cc(Cl)c(OCCCl)c(C#N)c1 [Compound 16]" readout_label=half-life endpoint_value=1.46
compound="CC(C)(c1ccc(-c2cnc(OCc3ccnc(N4CC([S@@](C)(=N)=O)C4)n3)cn2)cc1)c1cc(Cl)c(OCCCl)c(C#N)c1 (single isomer, unassigned) [Compound 323B]" readout_label=half-life endpoint_value=6.05
compound="CC(C)(c1ccc(-c2cnc(OCc3ccnc(N4CC5(CCS5(=N)=O)C4)n3)cn2)cc1)c1cc(Cl)c(OCCCl)c(C#N)c1 (single isomer, unassigned) [Compound 375A]" readout_label=half-life endpoint_value=6.82
compound="CNS(=O)(=O)C1CN(c2nccc(COc3ccc(-c4ccc(C(C)(C)c5cc(Cl)c(OCCCl)c(C#N)c5)cc4)nc3)n2)C1 [Compound 258]" readout_label=half-life endpoint_value=5.2
compound="CC(C)(c1ccc(-c2ccc(OCc3ccnc(P(C)(C)=O)n3)cc2)cc1)c1cc(Cl)c(OCCCl)c(C#N)c1 [Compound 2]" readout_label=half-life endpoint_value=12
compound="CC(C)(c1ccc(-c2ccc(OCc3ncc(P(C)(C)=O)s3)cc2)cc1)c1cc(Cl)c(OCCCl)c(C#N)c1 [Compound 221]" readout_label=half-life endpoint_value=10.4
compound="CC(C)(c1ccc(-c2ccc(OCC3CN(c4ccnc(P(C)(C)=O)n4)C3)cc2)cc1)c1cc(Cl)c(OCCCl)c(C#N)c1 [Compound 70]" readout_label=half-life endpoint_value=5.13

Prompt: Entry CC(C)(c1ccc(-c2ccc(COc3ccnc(P(C)(C)=O)n3)cc2)cc1)c1cc(Cl)c(OCCCl)c(C#N)c1 [Compound 253] has what half-life?
Completion: 7.3

Prompt: Entry C[C@H](Cl)COc1c(Cl)cc(C(C)(C)c2ccc(-c3ccc(OCc4ccnc(P(C)(C)=O)n4)cc3)cc2)cc1C#N [Compound 283] has what half-life?
Completion: 9.3

Prompt: Entry CC(C)(c1ccc(-c2ccc(/C=C/c3ccnc(P(C)(C)=O)n3)cc2)cc1)c1cc(Cl)c(OCCCl)c(C#N)c1 [Compound 228] has what half-life?
Completion: 6

Prompt: Entry Cc1cc(OCc2ccnc(P(C)(C)=O)n2)ccc1-c1ccc(C(C)(C)c2cc(Cl)c(OCCCl)c(C#N)c2)cc1 [Compound 119] has what half-life?
Completion: 11.8

Prompt: Entry CC(C)(c1ccc(-c2ccc(OC3CCN(c4ccnc(P(C)(C)=O)n4)CC3)cc2)cc1)c1cc(Cl)c(OCCCl)c(C#N)c1 [Compound 48] has what half-life?
Completion: 18

Prompt: Entry CC(C)(c1ccc(-c2ccc(OCc3ccnc(N4CC(S(C)(=N)=O)C4)n3)cn2)cc1)c1cc(Cl)c(OCCCl)c(C#N)c1 (racemic) [Compound 242] has what half-life?
Completion: 4.4

====

- protocol-details: Mouse pharmacokinetic test
- Assay type: in vivo, ICR mice
- details: plasma, po, 30 mg/kg, PO-30mpk
readout-label: AUC(0-inf) (µg·h/mL)
Only the number, expressed in µg·h/mL, is required.

compound="CC(C)(c1ccc(-c2ccc(OCc3ccnc(N=S4(=O)CCCC4)n3)cc2)cc1)c1cc(Cl)c(OCCCl)c(C#N)c1 [Compound 7]" units=µg·h/mL endpoint_value=161

Prompt: Entry CC(C)(c1ccc(-c2ncc(OCc3ccc(-c4cnc(P(C)(C)=O)nc4)cc3)cn2)cc1)c1cc(Cl)c(OCCCl)c(C#N)c1 [Compound 272] has what AUC(0-inf)?
Completion: 755

Prompt: Entry CC(C)(c1ccc(-c2ccc(OCC3CN(c4ccnc(P(C)(C)=O)n4)C3)cc2)cc1)c1cc(Cl)c(OCCCl)c(C#N)c1 [Compound 70] has what AUC(0-inf)?
Completion: 187

Prompt: Entry CC(C)(c1ccc(-c2ccc(OCc3ncc(P(C)(C)=O)s3)cc2)cc1)c1cc(Cl)c(OCCCl)c(C#N)c1 [Compound 221] has what AUC(0-inf)?
Completion: 464

Prompt: Entry CC(C)(c1ccc(-c2ccc(/C=C/c3cnc(P(C)(C)=O)nc3)cc2)cc1)c1cc(Cl)c(OCCCl)c(C#N)c1 [Compound 234] has what AUC(0-inf)?
Completion: 307

Prompt: Entry CNS(=O)(=O)C1CN(c2nccc(COc3ccc(-c4ccc(C(C)(C)c5cc(Cl)c(OCCCl)c(C#N)c5)cc4)nc3)n2)C1 [Compound 258] has what AUC(0-inf)?
Completion: 323

Prompt: Entry CC(C)(c1ccc(-c2ccc(OCc3ccnc(N4CC5(CCS5(=O)=O)C4)n3)cc2)cc1)c1cc(Cl)c(OCCCl)c(C#N)c1 [Compound 176] has what AUC(0-inf)?
Completion: 407

Prompt: Entry CC(C)(c1ccc(-c2ccc(OC3CCN(c4ccnc(P(C)(C)=O)n4)CC3)nc2)cc1)c1cc(Cl)c(OCCCl)c(C#N)c1 [Compound 103] has what AUC(0-inf)?
Completion: 247

Prompt: Entry CC(C)(c1ccc(-c2ccc(OCc3ccnc(N=S4(=O)CCCC4)n3)cn2)cc1)c1cc(Cl)c(OCCCl)c(C#N)c1 [Compound 16] has what AUC(0-inf)?
Completion: 211
